A collection of binders and their measured EC50
biological target: T1, recombinant human transferrin receptor 1 (human, UniProt P02786 89-760); assay: ELISA, thermal stability d9 (after 9 days at high temperature); printed as 'Binding affinity hTfR1 d9 (nM)'
T1 construct: also called hTfR1; huTfR1
T1 sequence (P02786 89-760 limits assumed): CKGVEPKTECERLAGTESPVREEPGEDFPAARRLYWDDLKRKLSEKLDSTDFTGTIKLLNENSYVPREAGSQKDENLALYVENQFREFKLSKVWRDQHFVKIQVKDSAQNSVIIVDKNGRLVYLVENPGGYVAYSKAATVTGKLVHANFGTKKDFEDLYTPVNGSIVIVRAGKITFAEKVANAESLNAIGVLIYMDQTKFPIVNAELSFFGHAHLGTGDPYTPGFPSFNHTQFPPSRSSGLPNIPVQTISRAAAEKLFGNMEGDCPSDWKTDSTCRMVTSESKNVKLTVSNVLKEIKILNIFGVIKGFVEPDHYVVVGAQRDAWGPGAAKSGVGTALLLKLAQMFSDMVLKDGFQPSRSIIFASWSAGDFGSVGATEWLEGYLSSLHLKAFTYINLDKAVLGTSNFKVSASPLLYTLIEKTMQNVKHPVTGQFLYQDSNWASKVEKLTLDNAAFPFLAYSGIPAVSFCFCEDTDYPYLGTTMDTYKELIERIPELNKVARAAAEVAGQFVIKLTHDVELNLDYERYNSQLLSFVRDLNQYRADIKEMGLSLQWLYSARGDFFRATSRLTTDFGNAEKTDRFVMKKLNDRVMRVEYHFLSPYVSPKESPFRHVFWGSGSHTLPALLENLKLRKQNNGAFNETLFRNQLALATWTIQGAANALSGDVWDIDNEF
Give the value in nM but do not write nM after it.

Example entries begin here.
[
  {
    "binder": "humanized anti-TfR Fab 3M12 (VH4/Vk3) (Fab, V domains shown, unconjugated; also called 3M12 VH4/Vκ3) VH: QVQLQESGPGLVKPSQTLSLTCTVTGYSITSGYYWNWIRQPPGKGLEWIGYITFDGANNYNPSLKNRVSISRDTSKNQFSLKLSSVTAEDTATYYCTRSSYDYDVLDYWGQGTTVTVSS VL: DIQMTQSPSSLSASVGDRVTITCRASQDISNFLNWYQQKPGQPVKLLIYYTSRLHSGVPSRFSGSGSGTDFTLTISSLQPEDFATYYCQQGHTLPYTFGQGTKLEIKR",
    "EC50 / nM": 0.28
  },
  {
    "binder": "humanized anti-TfR Fab 5H12 (VH5-C33D/Vk4) (Fab, V domains shown, unconjugated; also called 5H12 VH5 (C33D*)/Vκ4) VH: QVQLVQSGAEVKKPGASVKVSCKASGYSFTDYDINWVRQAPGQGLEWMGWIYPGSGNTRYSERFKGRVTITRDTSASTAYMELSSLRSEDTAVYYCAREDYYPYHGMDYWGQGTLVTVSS VL: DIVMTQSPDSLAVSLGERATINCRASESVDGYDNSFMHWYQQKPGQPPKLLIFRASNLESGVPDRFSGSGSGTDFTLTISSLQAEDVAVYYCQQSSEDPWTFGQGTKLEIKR",
    "EC50 / nM": 92.3
  },
  {
    "binder": "humanized anti-TfR Fab 3M12 (VH3/Vk3) (Fab, V domains shown, unconjugated; also called 3M12 VH3/Vκ3) VH: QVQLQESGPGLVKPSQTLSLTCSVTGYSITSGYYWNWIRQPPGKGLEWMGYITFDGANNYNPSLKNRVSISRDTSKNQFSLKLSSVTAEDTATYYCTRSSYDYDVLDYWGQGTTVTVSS VL: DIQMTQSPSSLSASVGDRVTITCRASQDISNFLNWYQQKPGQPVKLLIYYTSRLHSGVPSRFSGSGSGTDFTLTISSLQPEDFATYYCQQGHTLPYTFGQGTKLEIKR",
    "EC50 / nM": 1.49
  },
  {
    "binder": "humanized anti-TfR Fab 5H12 (VH5-C33Y/Vk4) (Fab, V domains shown, unconjugated; also called 5H12 VH5 (C33Y*)/Vκ4) VH: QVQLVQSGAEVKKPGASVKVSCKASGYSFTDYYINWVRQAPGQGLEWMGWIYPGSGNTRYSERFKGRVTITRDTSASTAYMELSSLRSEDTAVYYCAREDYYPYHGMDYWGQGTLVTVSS VL: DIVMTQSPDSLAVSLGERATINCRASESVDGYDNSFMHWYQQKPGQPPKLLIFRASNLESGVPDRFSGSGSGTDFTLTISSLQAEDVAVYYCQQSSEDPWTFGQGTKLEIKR",
    "EC50 / nM": 1730
  }
]

GET /value?item= humanized anti-TfR Fab 3A4 (VH3-N54T/Vk4) (Fab, V domains shown, unconjugated; also called 3A4 VH3 (N54T*)/Vκ4) VH: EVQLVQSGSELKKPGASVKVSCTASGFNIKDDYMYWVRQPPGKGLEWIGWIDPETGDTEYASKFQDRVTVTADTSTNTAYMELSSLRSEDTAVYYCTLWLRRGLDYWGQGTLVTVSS VL: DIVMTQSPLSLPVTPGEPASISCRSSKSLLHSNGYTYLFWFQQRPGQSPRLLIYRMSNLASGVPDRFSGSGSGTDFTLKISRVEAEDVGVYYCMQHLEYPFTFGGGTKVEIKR &field=EC50 returns 0.4
